# maps each entry to its Kd
target: Phi29-type DNA polymerase (Bacillus phage phi29, UniProt P03680); experiment: Dissociation constants of nucleotides with polymerase by fluorescence assays; type: binding; details: fluorescence assays; natural and unincorporable nucleotides
Sequence (P03680 whole entry): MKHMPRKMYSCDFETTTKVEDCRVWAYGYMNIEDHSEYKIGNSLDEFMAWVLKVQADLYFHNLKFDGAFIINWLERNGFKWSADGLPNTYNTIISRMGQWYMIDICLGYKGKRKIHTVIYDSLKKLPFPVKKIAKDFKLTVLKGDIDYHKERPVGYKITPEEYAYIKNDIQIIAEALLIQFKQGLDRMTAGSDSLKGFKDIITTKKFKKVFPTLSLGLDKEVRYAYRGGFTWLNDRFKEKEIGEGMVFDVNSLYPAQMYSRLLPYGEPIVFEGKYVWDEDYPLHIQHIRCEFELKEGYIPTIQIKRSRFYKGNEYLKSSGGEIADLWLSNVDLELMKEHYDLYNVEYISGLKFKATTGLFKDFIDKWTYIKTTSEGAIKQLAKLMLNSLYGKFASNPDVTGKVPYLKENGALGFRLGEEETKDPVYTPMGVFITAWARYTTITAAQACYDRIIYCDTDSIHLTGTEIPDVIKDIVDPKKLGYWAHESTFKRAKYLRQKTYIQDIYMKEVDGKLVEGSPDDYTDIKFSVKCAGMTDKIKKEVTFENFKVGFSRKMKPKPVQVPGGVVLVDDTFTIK
Expressed in nM, but write only the number.

# compound, system_name, number
measured = [
    ("Nc1ccn(C2CC(O)C(COP(O)(=S)OP(=O)(O)OP(=O)(O)O)O2)c(=O)n1 (stereo not drawn) [2′-dCTP-αS (Rp-isomer), 2′-dCTP-αS]", "Phi29-type DNA polymerase (Bacillus phage phi29, UniProt P03680)", 750),
    ("Nc1ccn(C2CC(O)C(COP(=O)(O)CP(=O)(O)OP(=O)(O)O)O2)c(=O)n1 (stereo not drawn) [dCp-CH2-pp, reference compound]", "Phi29-type DNA polymerase (Bacillus phage phi29, UniProt P03680)", 25000),
]

Next, consider the following compound.
Record Nc1ccn(C2CC(O)C(COP(O)(=S)OP(=O)(O)OP(=O)(O)O)O2)c(=O)n1 (stereo not drawn) [2′-dCTP-αS (Sp-isomer), 2′-dCTP-αS] . Reported Kd: 1
